Recorded values, source patent US20210269451A1.

- tested-on: CYP2D6 (Homo sapiens, UniProt P10635)
- Construct: tissue BD-Gentest 452117; host or cells: human liver microsomes
- Sequence (P10635 whole entry): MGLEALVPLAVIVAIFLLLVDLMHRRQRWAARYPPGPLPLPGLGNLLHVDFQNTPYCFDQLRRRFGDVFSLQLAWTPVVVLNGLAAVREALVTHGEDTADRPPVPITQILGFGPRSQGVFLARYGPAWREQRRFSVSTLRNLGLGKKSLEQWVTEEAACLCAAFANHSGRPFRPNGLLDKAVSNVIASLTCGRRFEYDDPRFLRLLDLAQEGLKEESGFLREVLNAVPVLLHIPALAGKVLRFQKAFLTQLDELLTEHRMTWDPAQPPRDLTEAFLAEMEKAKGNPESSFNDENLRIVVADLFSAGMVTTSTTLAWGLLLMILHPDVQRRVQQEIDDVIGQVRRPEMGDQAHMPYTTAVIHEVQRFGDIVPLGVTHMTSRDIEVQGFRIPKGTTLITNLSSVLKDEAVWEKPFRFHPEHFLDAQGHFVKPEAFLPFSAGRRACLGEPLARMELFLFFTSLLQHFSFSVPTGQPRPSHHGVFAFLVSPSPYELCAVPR
- test-method-notes: CYP inhibition assay in human liver microsome
- Format: in vitro ADME
- condition: human liver microsomes, probe dextromethorphan, dextromethorphan substrate, percentage inhibition <0: not or weak inhibitor, read-out: CYP 2D6 inhibition %@10 μM
measurement-type: inhibition at 10 min, 10 μM (%)

State the recorded inhibition at 10 min, 10 μM for this entry: C[C@@H]1CN(c2ccc(C#N)c3ncccc23)C[C@H](CN2CC3(C2)CN(c2ccnc(C4CC4)c2)CCO3)O1 [Example 3]
6

[A] Cc1cc(N2CC3(CN(C[C@H]4CN(c5ccc(C#N)c6ncccc56)C[C@@H](C)O4)C3)C2)cc(CO)n1 [Example 1]
[B] CNc1cc(N2CCN(C[C@H]3CN(c4ccc(C#N)c5ncccc45)C[C@@H](C)O3)CC2)cc(C)n1 [Example 42]
Param metric = inhibition at 10 min, 10 μM; output whichever of A , B has the minimum value. Pick one; state its label.
B

====

- tested-on: UniProt Q9NR96
- test-method-notes: HEK293-Blue-hTLR-9 cells assay
- Type: cell-based
- Set-up: host or cells: HEK293-Blue-hTLR-9 (HEK293)
- condition: HEK293-Blue-hTLR9 cells, ODN2006 stimulation, 20 hrs, SEAP reporter; read-out: HEK/hTLR9 IC50
pIC50: −log10 of the molar value.
measurement-type: pIC50

Examples with answers:
Identify the measured pIC50 of Cc1cc(NC2CCN(C[C@H]3CN(c4ccc(C#N)c5ncccc45)C[C@@H](C)O3)C2)cc(CO)n1 (stereo partly drawn) for UniProt Q9NR96.
7.39

Identify the measured pIC50 of Cc1cc(N2CC(NC[C@H]3CN(c4ccc(C#N)c5ncccc45)C[C@@H](C)O3)C2)cc(CO)n1 for UniProt Q9NR96.
7.06

Identify the measured pIC50 of Cc1cc(N2CC[C@H](F)[C@H](NC[C@H]3CN(c4ccc(C#N)c5ncccc45)C[C@@H](C)O3)C2)cc(CO)n1 for UniProt Q9NR96.
6.91

[A] Cc1cc(N2CC[C@H](NC[C@H]3CN(c4ccc(C#N)c5ncccc45)C[C@@H](C)O3)C2)cc(CO)n1
[B] C[C@@H]1CN(c2ccc(C#N)c3ncccc23)C[C@H](CN2CC3(C2)CN(c2ccnc(C4CC4)c2)C3)O1
Param metric = pIC50; output whichever of A , B has the minimum value. Pick one; state its label.
A

====

- tested-on: hTLR9 (Homo sapiens, UniProt Q9NR96)
- Sequence (Q9NR96 26-1032): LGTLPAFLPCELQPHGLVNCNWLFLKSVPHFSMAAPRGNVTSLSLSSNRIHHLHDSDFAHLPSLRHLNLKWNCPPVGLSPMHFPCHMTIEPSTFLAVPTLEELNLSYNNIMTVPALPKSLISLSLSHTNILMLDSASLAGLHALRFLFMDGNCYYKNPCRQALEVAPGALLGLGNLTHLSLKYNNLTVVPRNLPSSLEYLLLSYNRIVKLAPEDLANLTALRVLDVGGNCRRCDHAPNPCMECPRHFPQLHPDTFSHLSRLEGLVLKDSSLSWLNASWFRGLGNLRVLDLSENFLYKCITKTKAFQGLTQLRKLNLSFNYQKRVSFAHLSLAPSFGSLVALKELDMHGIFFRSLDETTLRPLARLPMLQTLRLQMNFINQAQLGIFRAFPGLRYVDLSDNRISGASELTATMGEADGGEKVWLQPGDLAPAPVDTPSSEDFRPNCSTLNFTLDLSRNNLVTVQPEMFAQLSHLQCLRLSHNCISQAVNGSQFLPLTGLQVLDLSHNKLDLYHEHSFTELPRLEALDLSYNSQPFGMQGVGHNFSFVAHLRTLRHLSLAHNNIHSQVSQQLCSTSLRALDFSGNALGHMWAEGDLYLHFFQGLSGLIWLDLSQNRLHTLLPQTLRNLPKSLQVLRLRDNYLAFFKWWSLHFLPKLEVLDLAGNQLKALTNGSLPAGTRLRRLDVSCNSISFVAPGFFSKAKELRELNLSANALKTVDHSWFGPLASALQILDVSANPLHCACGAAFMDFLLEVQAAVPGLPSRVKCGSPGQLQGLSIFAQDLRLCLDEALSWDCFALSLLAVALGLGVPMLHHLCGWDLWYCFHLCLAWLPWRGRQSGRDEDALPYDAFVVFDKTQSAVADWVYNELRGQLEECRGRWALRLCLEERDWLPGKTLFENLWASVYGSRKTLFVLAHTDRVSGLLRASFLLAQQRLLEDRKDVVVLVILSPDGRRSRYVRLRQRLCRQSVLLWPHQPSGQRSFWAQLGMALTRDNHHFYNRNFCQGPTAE
- test-method-notes: HEK293-Blue-hTLR-9 cells assay
- Format: cell-based
- Parameters: host or cells: HEK293-Blue-hTLR-9 (HEK293)
- condition: HEK293-Blue-hTLR9 cells, ODN2006 stimulation, 20 hrs, SEAP reporter; read-out: HEK/hTLR9 IC50
measurement-type: IC50

State the recorded IC50 for this entry: Cc1cc(N2CCC[C@H](NC[C@H]3CN(c4ccc(C#N)c5ncccc45)C[C@@H](C)O3)C2)cc(CO)n1 [Example 25]
< 32 nM

Next:
State the recorded IC50 for this entry: Cc1cc(N2CCC23CN(C[C@H]2CN(c4ccc(C#N)c5ncccc45)C[C@@H](C)O2)C3)cc(C)n1 [Example 8]
< 32 nM

State the recorded IC50 for this entry: Cc1cc(N2CC3(CN(C[C@H]4CN(c5ccc(C#N)c6ncccc56)C[C@@H](C)O4)C3)C2)cc(C(C)O)n1 (stereo partly shown) [Example 44]
< 32 nM

State the recorded IC50 for this entry: Cc1cc(N2CCC(NC[C@H]3CN(c4ccc(C#N)c5ncccc45)C[C@@H](C)O3)CC2)cc(CO)n1 [Example 23]
< 32 nM

State the recorded IC50 for this entry: Cc1cc(N2CCOC3(CN(C[C@H]4CN(c5ccc(C#N)c6ncccc56)C[C@@H](C)O4)C3)C2)ccn1 [Example 16]
38 nM

State the recorded IC50 for this entry: CNc1cc(N2CCN(C[C@H]3CN(c4ccc(C#N)c5ncccc45)C[C@@H](C)O3)CC2)cc(C)n1 [Example 42]
< 32 nM

====

Reported IC50 values are given for each entry in this list.
- tested-on: hTLR9 (Homo sapiens, UniProt Q9NR96)
- test-method-notes: HEK293-Blue-hTLR-9 cells assay
- Type: cell-based
- Parameters: host or cells: HEK293-Blue-hTLR-9 (HEK293)
- condition: HEK293-Blue-hTLR9 cells, ODN2006 stimulation, 20 hrs, SEAP reporter; read-out: HEK/hTLR9 IC50

Examples with answers:
State the recorded IC50 for this entry: Cc1cc(C2CCN(C[C@H]3CN(c4ccc(C#N)c5ncccc45)C[C@@H](C)O3)CC2)cc(N)n1
54 nM

State the recorded IC50 for this entry: CC(O)c1cc(N2CC3(CN(C[C@H]4CN(c5ccc(C#N)c6ncccc56)C[C@@H](C)O4)C3)C2)ccn1 (stereo partly shown)
< 32 nM

State the recorded IC50 for this entry: Cc1cc(N2C[C@H]3CN(C[C@H]4CN(c5ccc(C#N)c6ncccc56)C[C@@H](C)O4)C[C@H]3C2)cc(CO)n1
< 32 nM

# next molecule below
State the recorded IC50 for this entry: Cc1cc(N2CCOC3CN(CC4CN(c5ccc(C#N)c6ncccc56)CC(C)O4)CC32)cc(C)n1 (single isomer, unassigned) [Example 17B]
< 32 nM
